Listing of recorded pIC50 by entry.
Biological target: hmGluR1 receptor (Homo sapiens)
Construct: expressed in transfected cells
Sequence (Q13255 19-1194): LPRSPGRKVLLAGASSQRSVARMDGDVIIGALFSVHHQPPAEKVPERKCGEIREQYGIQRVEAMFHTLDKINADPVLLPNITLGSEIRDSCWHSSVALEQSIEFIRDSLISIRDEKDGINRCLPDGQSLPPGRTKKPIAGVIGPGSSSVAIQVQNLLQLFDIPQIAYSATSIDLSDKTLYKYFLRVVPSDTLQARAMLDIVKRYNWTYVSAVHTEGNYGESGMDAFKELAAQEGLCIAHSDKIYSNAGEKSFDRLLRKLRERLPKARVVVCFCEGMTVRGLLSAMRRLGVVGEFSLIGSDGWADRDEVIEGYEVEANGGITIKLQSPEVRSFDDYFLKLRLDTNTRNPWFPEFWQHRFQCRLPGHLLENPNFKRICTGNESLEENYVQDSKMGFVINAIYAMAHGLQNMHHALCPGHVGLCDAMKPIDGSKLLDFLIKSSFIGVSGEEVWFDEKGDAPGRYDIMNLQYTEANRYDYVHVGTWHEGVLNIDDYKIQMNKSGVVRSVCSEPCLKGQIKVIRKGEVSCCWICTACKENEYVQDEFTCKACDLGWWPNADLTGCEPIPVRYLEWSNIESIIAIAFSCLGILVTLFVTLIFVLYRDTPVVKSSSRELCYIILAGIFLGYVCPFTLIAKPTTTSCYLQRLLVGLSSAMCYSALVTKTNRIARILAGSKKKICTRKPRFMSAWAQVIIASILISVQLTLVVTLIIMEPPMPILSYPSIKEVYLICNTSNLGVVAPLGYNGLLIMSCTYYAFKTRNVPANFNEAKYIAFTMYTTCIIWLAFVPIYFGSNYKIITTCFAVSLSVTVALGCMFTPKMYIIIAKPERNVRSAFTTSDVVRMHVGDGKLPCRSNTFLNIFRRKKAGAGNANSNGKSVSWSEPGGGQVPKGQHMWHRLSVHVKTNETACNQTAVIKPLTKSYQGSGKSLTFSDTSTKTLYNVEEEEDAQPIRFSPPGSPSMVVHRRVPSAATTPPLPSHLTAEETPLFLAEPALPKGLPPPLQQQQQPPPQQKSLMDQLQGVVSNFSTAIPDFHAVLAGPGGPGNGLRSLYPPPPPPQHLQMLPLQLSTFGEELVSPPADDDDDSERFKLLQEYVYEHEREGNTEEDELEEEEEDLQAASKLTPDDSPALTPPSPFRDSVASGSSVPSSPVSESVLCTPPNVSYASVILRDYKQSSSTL
Assay: IC50 determination: intracellular calcium mobilization (FLIPR) upon Quisqualate stimulation in CHO cells stably expressing hmGluR1
Format: cell-based
Conditions: against Quisqualate 1 μM (EC80), class symbols, read-out: mGIuR 1 IC50
pIC50: −log10 of the molar value.
result type: pIC50

In [3]: df
Out[3]:
                                    compound  result_type      reported
 0  COc1ccc(-n2cnc3c(sc4nc(C)cc(N(C)C)c43)c2=O)cc1F [7CL]        pIC50  6.82 to 7.30
 1  CN(C)c1ccnc2c1c1ncn(-c3ccc(Cl)cc3)c(=O)c1n2C [134F]        pIC50  6.00 to 6.82
 2  CCN(C)c1ncnc2sc3c(=O)n(-c4ccc5c(c4)OCC5)cnc3c12 [95K]        pIC50        > 7.30
 3  CCCCc1nc2c(sc3nccc(N(C)C)c32)c(=O)n1-c1ccc(C)cc1 [116C]        pIC50  6.00 to 6.82
 4  CN(C)c1cccc2sc3c(=O)n(-c4ccc5scnc5c4)cnc3c12 [103F]        pIC50  6.00 to 6.82
 5  CNc1c(C#N)cnc2sc3c(=O)n(C4CCCCC4)cnc3c12 [compound 48]        pIC50  6.00 to 6.82
 6  Cc1nc2ccc(-n3cnc4c(sc5nccc(N(C)C)c54)c3=O)cc2o1 [7BT]        pIC50        < 6.00
 7  COc1ccc(-c2c(C(C)=O)c(C)nc3sc4c(=O)n(-c5ccccc5)cnc4c23)cc1 [P-12]        pIC50  6.00 to 6.82
 8  CN(C)c1ccnc2sc3c(=O)n(-c4ccc5c(c4)oc(=O)n5C)cnc3c12 [7AR]        pIC50        < 6.00
 9  CCOC(=O)CSc1nc2c(sc3nc(C)cc(C)c32)c(=O)n1-c1ccc(Cl)cc1 [P-7]        pIC50  6.00 to 6.82
10  Cc1nc2c(sc3nccc(N(C)C)c32)c(=O)n1-c1ccccc1 [113B]        pIC50        > 7.30
11  CN(C)c1ccnc2sc3c(=O)n(-c4ccc(Cl)cc4)cnc3c12 [P-2]        pIC50        > 7.30
12  COc1ccnc2sc3c(=O)n(C4CCCCC4)cnc3c12 [25A]        pIC50  6.00 to 6.82
13  CN(C)c1cncc2sc3c(=O)n(-c4ccc(O)cc4)cnc3c12 [37H]        pIC50        < 6.00
14  Cc1ccc(-n2cnc3c(sc4nccc(N(C)C)c43)c2=O)cc1F [7DH]        pIC50        > 7.30
15  CN(C)c1ccnc2sc3c(=O)n(-c4ccc5ncsc5c4)cnc3c12 [7AS]        pIC50        > 7.30
16  Cc1cccc(-n2cnc3c(sc4nccc(N(C)C)c43)c2=O)c1 [7CU]        pIC50        > 7.30
17  COc1ccc(-n2cnc3c(sc4ncc(Br)c(N(C)C)c43)c2=O)cc1Br [compound 149]        pIC50        < 6.00
18  COc1cc(N(C)C)c2c(n1)sc1c(=O)n(-c3ccc(C)cc3)cnc12 [compound 58]        pIC50        > 7.30
